List of pKd values.
# System Under Test: human NTCP (Homo sapiens, UniProt Q14973)
# Construct: made in house; host or cells: wheat germ cell-free protein synthesis system
# Sequence (Q14973 whole entry): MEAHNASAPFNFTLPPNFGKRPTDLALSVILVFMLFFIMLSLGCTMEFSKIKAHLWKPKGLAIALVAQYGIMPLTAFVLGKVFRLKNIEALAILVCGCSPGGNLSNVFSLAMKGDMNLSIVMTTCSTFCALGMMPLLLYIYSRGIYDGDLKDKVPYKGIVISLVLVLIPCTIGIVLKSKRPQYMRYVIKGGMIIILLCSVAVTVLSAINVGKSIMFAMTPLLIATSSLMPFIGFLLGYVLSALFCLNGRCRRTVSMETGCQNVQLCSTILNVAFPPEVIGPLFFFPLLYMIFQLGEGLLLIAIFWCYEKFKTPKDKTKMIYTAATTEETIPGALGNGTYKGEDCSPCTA
# Method Description: Surface plasmon resonance binding to immobilized recombinant NTCP
# Experimental Context: Kd, single-cycle kinetics, 1:1 binding model, NTCP immobilized on NTA-Ni2+
Where a SMILES comes first, the peptide text is derived from it. Bridges are numbered along the chain shown (N, C = ends). [ ]: non-standard residue; d: D form. NMeS = CN[C@@H](CO)C(=O)O
API: returns pKd as number; meaning -log10 of concentration in mol/L.

Observe how each entry below is paired with its result.
CC[C@H](C)[C@@H]1NC(=O)[C@@H](Cc2ccc(O)cc2)NC(=O)CSC[C@@H](C(=O)NCC(N)=O)NC(=O)[C@H](CO)NC(=O)[C@H](Cc2ccc(O)cc2)NC(=O)[C@H](CC(C)C)NC(=O)[C@H](CC(C)C)NC(=O)[C@H](Cc2ccccc2)NC(=O)[C@H](CC(C)C)NC(=O)[C@H](Cc2c[nH]cn2)NC(=O)[C@H](CC(C)C)NC(=O)[C@H](CCC(=O)O)NC(=O)[C@@H]2CCCN2C(=O)[C@H](Cc2ccc(O)cc2)NC(=O)[C@H](C(C)C)NC(=O)[C@H](CC(C)C)NC1=O [D4] ({CH2CO}-[dY]ILVYPELHLFLLYSCG-NH2; thioether N-16); 5.64
CC[C@H](C)[C@@H]1NC(=O)[C@H](Cc2ccc(O)cc2)NC(=O)[C@H](Cc2ccc(O)cc2)NC(=O)[C@H](Cc2c[nH]cn2)NC(=O)[C@H](Cc2c[nH]cn2)NC(=O)[C@H]([C@@H](C)O)NC(=O)[C@H](CC(N)=O)NC(=O)[C@H](Cc2c[nH]c3ccccc23)NC(=O)[C@H]([C@@H](C)O)NC(=O)[C@H](Cc2ccc(O)cc2)NC(=O)CSC[C@@H](C(=O)NCC(N)=O)NC(=O)[C@H](CC(N)=O)NC(=O)[C@H](CC(C)C)NC(=O)[C@H](Cc2c[nH]c3ccccc23)NC1=O [L5] ({CH2CO}-YTWNTHHYYIWLNCG-NH2; thioether N-14); 8.40
CC(C)C[C@@H]1NC(=O)[C@H](Cc2ccccc2)NC(=O)[C@H](C)NC(=O)[C@H](CO)N(C)C(=O)[C@H](CC(N)=O)NC(=O)[C@H](Cc2c[nH]c3ccccc23)NC(=O)[C@H]([C@@H](C)O)NC(=O)[C@H](Cc2c[nH]c3ccccc23)NC(=O)[C@H]([C@@H](C)O)NC(=O)[C@H](Cc2ccc(O)cc2)NC(=O)CSC[C@@H](C(=O)N[C@H](C(N)=O)[C@@H](C)O)NC(=O)[C@H](Cc2ccc(O)cc2)NC(=O)[C@H](C(C)C)NC(=O)[C@H](Cc2ccc(O)cc2)NC1=O [WL6] ({CH2CO}-YTWTWN[NMeS]AFLYVYCT-NH2; thioether N-14); 7.44

Consider the record given below.
Reported pKd for CC(C)C[C@@H]1NC(=O)[C@H](Cc2ccc(O)cc2)NC(=O)[C@H](C)NC(=O)[C@H](CO)N(C)C(=O)[C@H](Cc2c[nH]cn2)NC(=O)[C@H](Cc2c[nH]c3ccccc23)NC(=O)[C@H]([C@@H](C)O)NC(=O)[C@H](Cc2c[nH]c3ccccc23)NC(=O)[C@H]([C@@H](C)O)NC(=O)[C@H](Cc2ccc(O)cc2)NC(=O)CSC[C@@H](C(=O)N[C@H](C(N)=O)[C@@H](C)O)NC(=O)[C@H](Cc2ccccc2)NC(=O)[C@H](C(C)C)NC(=O)[C@H](Cc2ccc(O)cc2)NC1=O [WL3] ({CH2CO}-YTWTWH[NMeS]AYLYVFCT-NH2; thioether N-14) was 7.24
